From: paper PMC5943153

- Target Or System: T1, HP0221-T25 (NifU) (Helicobacter pylori strain 26695, UniProt O25009 2-326)
- T1 sequence (looked up): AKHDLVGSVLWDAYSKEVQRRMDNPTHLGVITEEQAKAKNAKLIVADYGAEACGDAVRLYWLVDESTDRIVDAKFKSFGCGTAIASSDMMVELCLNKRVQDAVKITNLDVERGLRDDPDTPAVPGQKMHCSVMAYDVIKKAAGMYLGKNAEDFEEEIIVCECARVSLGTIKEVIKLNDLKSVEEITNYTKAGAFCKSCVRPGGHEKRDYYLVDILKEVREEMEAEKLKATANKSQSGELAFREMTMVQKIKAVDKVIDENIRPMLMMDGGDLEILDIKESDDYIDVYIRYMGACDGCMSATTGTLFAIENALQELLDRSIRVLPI
- Measurement Description: two-hybrid
Observable: growth OD595 in M63-maltose

Binder	Recorded Measurement
T18-HP0654 (natural protein, Helicobacter pylori strain 26695, UniProt O25368 2-360, looked up) DFLEKVLDNQVTESKELVRLYDYDLYTLGEVADRMRQNMHQKIVYFNVNRHLNPSNICADACKFCAFSAHRKNPNPYEMSLEEILEKVKNSYNKGIKEVHIVSAHNPNYSYEWYLKVFETIKQEMPNLHLKAMTAAEVHFLSVKFNKPFELVLEDMLKAGVDSMPGGGAEIFDEEIRRKICNGKVGSSRWLEIHAYWHKLGKMSNATMLFGHIENKIHRIDHMLRIKKIQSPKNQVENKEGGFNAFIPLLYQKENNYLNVEKSPSAIEILKTIAISRILLNNIPHIKAYWATLGLNLALVAQEFGANDLDGTIEIESIQSAAGAKSRHGLEKEDLIFKIKDAGFVAVERDSLYNFIQKF	0.33 OD595
T18-HP0631 (natural protein, Helicobacter pylori strain 26695, UniProt O25348 2-384, looked up) FYDEKKTYQKIEERLDIVRSFNAHNEHKNLQDEFKGAGISRRDLLKWAGMMSTALALPASFAPLTLKAVEVANRLPVIWLHMAECTGCSESLLRSADPTIDSIIFDYINLEYHETIMVASGFQAEKSLHDAIEKHKNNYILMVEGGIPQGTEYFLTQGPNAETGAEECRKAAQYAAAIFAIGTCSSFGGVQAAYPNPSNAQPLHKIIDKPVINVPGCPPSEKNIVGNVLYYLMFGALPKLDAYNRPSWAYGNRIHDLCERRGHFDAGEFVEHFGDENAKRGFCLYKMGCKGPYTFNNCSKLRFNSHTSWPIGAGHGCIGCSEPNFWDTMSPFEEPLANRSIKTAFDGLGADKVADKVGTTLLSATAIGIVAHALLSKAIKNKE	0.24 OD595
